# TEST SYSTEM: human IL-17A / human IL-17RA (Homo sapiens (Human))
# METHOD: Human IL-17A biochemical assay (HTRF, blocking of IL-17A binding to IL-17RA)
# CONDITIONS USED: 0.4 nM IL-17A, 0.3 nM IL-17RA, max compound concentration 10 uM
# Description: Compounds disclosed herein were tested for blocking of human IL-17A (Cat: C774, novoprotein) protein with its receptor human IL-17RA (Cat: C153, novoprotein) in an assay based on Homogeneous Time Resolved Fluorescence. […] The HTRF signals (ex337 nm, em620 nm/665 nm) were read on BMG PHERAstar FSX instrument. […]
pIC50: −log10 of the molar value.
Would you mind labelling by pIC50? At or over 7 is criterion met, under is criterion not met.

{"COMPOUND": "CNC(=O)C1(N2C[C@@H](C(C)C)NC2=O)Cc2ccc(NC(=O)[C@@H](NC(=O)c3cccc(C)c3)C3CCCCC3)cc2C1 (stereo partly shown) [Example 71]", "CLASS LABEL": "criterion met"}
{"COMPOUND": "CNC(=O)C1(N2C[C@@H](C(C)C)NC2=O)Cc2ccc(NC(=O)[C@@H](NC(=O)c3ccnn3C3CC3)C3CCCCC3)cc2C1 (stereo partly shown) [Example 129]", "CLASS LABEL": "criterion met"}
{"COMPOUND": "Cn1nccc1C(=O)N[C@H](C(=O)Nc1ccc2c(c1)CC(C(=O)NC13CC(C1)C3)(N1CC3(CC3)CNC1=O)C2)C1CCCCC1 (stereo partly shown) [Example 182]", "CLASS LABEL": "criterion met"}
{"COMPOUND": "CNC(=O)C1(N2C[C@@H](C(C)C)NC2=O)Cc2ccc(NC(=O)C(NC(=O)c3ccnn3C)C3CCCC(C)C3)cc2C1 (stereo partly shown) [Example 104]", "CLASS LABEL": "criterion met"}
{"COMPOUND": "CNC(=O)C1(N2CC(C(C)(C)C)NC2=O)Cc2ccc(NC(=O)[C@@H](NC(=O)c3ccnn3C)C3CCCCC3)cc2C1 (stereo partly shown) [Example 44]", "CLASS LABEL": "criterion met"}
{"COMPOUND": "CNC(=O)C1(N2C[C@@H](C(C)C)NC2=O)Cc2ccc(NC(=O)[C@@H](NC(=O)c3ccnn3C)c3ccccc3)cc2C1 (stereo partly shown) [Example 60]", "CLASS LABEL": "criterion not met"}
{"COMPOUND": "CNC(=O)C1(N2CC(CC(F)(F)F)NC2=O)Cc2ccc(NC(=O)[C@@H](NC(=O)c3ccnn3C)C3CCCCC3)cc2C1 (stereo partly shown) [Example 73]", "CLASS LABEL": "criterion not met"}
{"COMPOUND": "CNC(=O)C1(N2C[C@@H](C(C)C)NC2=O)Cc2ccc(NC(=O)C(Cc3cc(Cl)ccc3Cl)NC(=O)c3ccnn3C)cc2C1 (stereo partly shown) [Example 127]", "CLASS LABEL": "criterion not met"}

----------
# TEST SYSTEM: human IL-17A / human IL-17RA (Homo sapiens (Human), UniProt Q16552)
# Sequence (Q16552 24-155): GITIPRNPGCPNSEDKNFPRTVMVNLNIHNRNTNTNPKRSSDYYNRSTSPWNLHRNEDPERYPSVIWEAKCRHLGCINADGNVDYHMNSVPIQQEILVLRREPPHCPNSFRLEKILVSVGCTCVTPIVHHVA
# METHOD: Human IL-17A biochemical assay (HTRF, blocking of IL-17A binding to IL-17RA)
# CONDITIONS USED: 0.4 nM IL-17A, 0.3 nM IL-17RA, max compound concentration 10 uM

{"COMPOUND": "CC#CCC1CN(C2(C(=O)NC)Cc3ccc(NC(=O)[C@@H](NC(=O)c4ccnn4C)C4CCCCC4)cc3C2)C(=O)N1 (stereo partly drawn) [Example 106]", "IC50 (nM)": 48}
{"COMPOUND": "Cn1nccc1C(=O)N[C@H](C(=O)Nc1ccc2c(c1)OC(CN1C[C@@H](C(F)(F)F)NC1=O)C2)C1CCCCC1 (stereo partly drawn) [Example 237]", "IC50 (nM)": 27.1}
{"COMPOUND": "Cc1nonc1C(=O)N[C@H](C(=O)Nc1ccc2c(c1)CC(c1nc3ccccc3[nH]1)(N1CC3(CC3)CNC1=O)C2)C1CCC(F)(F)CC1 (stereo partly drawn) [Example 184]", "IC50 (nM)": 151}
{"COMPOUND": "CC(C)[C@@H]1CN(C2(C(=O)N[C@H](CO)C3CCCCC3)Cc3ccc(NC(=O)[C@@H](NC(=O)c4ccnn4C)C4CCCCC4)cc3C2)C(=O)N1 (stereo partly drawn) [Example 121]", "IC50 (nM)": 16}
{"COMPOUND": "Cn1nccc1C(=O)N[C@H](C(=O)Nc1ccc2c(c1)CC(C(=O)NCc1ccccc1F)(N1CC3(CC3)CNC1=O)C2)C1CCCCC1 (stereo partly drawn) [Example 175]", "IC50 (nM)": 22.4}
{"COMPOUND": "Cn1nccc1C(=O)NC(C(=O)Nc1ccc2c(c1)CC(N1C[C@@H](C(F)(F)F)NC1=O)C2)C1Cc2ccc(Cl)cc2C2(CC2)C1 (stereo partly drawn) [Example 224]", "IC50 (nM)": 47.8}
{"COMPOUND": "CNC(=O)C1(N2CC(C(C)C)NC2=O)Cc2ccc(NC(=O)[C@@H](NC(=O)c3ccnn3C)C3CCCCC3)cc2C1 (stereo partly drawn) [Example 38]", "IC50 (nM)": 46}
{"COMPOUND": "Cc1nonc1C(=O)N[C@H](C(=O)Nc1ccc2c(c1)CC(N1C[C@@H](C(F)(F)F)NC1=O)C2)C1CCCCC1 (stereo partly drawn) [Example 213]", "IC50 (nM)": 1760}
{"COMPOUND": "Cc1nonc1C(=O)N[C@H](C(=O)Nc1ccc2c(c1)CC(N1C[C@@H](C(F)(F)F)NC1=O)C2)C1CCC(F)(F)CC1 (stereo partly drawn) [Example 178]", "IC50 (nM)": 3650}
